System: K4 kissing-loop RNA reporter;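 further: bound reporter read as fluorescence of individual clusters on recovered sequencing chips by microscopy, with normalized cluster intensities fitted with a binding model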
Experiment summary: apparent KD of K4 kissing-loop reporter; higher = weaker reporter binding
Assay setup: Eterna round: R107; input ligand: FMN 200 uM
This listing pairs sequences with measured apparent KD of K4 kissing-loop reporter.
Property name: apparent KD of K4 kissing-loop reporter (nM)

> print(dat)
                                   sequence  assay.result
1  UGACAUUGCUCAGAUACCAGACAAGAGGAUCACCCUUGUGCCAACGUACAAAUAAUAAAUGUCCCUUGGCAGCUGAGCAAUGUCU [TheoBX 15]          64.1
2  GGAUCCACCAGUGAUGUUGGAGAAAACUCUAAGGAUAUGACGAAAGUCAGAAGGUGGUAGACUGGACAAAGUCCGGUGGGAUCCA [FmnA10 U30+G78]           264
3  UAGUAGCUCUCGGCCGCCACUCCUCAGUGAUGUUGAGAUAUUAAGAGCCAAUUGGCUCAUAUAAAGAGGACCGGGAGAGCUACAU [AK4.2 SS Tryptophan B]           355
4  AGACGCCAGUCGGCCGCCACUCACAGCAGUGAUGUUGCUGAGAAUCUAGAAGAGUGAUGUUCUUAGAGGACCGGGACUCCAGUCG [Same State Tryptophan B GF 7]           354
5  ACGUAGUUCUAGGAUACCAGCCAAGGCCCAGGACAAAAGUCCUGGGUCGCCAGUGAUGUUGGCCCUUGGCAGCCUAGAACUACGA [Omei KL Theo B Exc B v11]           421
6  AGUACAAUGGCGGCCGCCACUCAACAGCAGAUCAAAGAUCUGCUUCACUCAGUGAUGUUGAGUGAGAGGACCGGGCCUUUGUACA [Omei KL Tryp B SS B v4]           793
